# Assay Remarks: Toxicity Test (LD50, observation of mice for two weeks)
# Design: species or system ICR (CD-1) mice
# Assay Context: mouse, in vivo, iv, male mice
Where a name gives a salt, the structure may show the parent alone.
Readout Label: LD50 at 336 h (mg/kg)
The figure you give is taken to be in mg/kg; do not add the unit.

Which LD50 at 336 h is listed for CC1OC2(CS1)CN1CCC2CC1 (stereo not shown) [hydrochloride] ?
45.2

###

# Assay Remarks: Toxicity Test (LD50, observation of mice for two weeks)
# Set-up: species or system ICR (CD-1) mice
# Assay Context: mouse, in vivo, sc, Subcutaneous, male mice
Where a name gives a salt, the structure may show the parent alone.
Readout Label: LD50 at 336 h

Which LD50 at 336 h is listed for CC1OC2(CS1)CN1CCC2CC1 (stereo not shown) [hydrochloride] ?
65 mg/kg

###

# Assay Remarks: Toxicity Test (LD50, observation of mice for two weeks)
# Design: species or system ICR (CD-1) mice
# Assay Context: mouse, in vivo, sc, Subcutaneous, female mice
Structures can show the parent of a compound that is named as a salt.
Readout Label: LD50 at 336 h (mg/kg)
The figure you give is taken to be in mg/kg; do not add the unit.

Which LD50 at 336 h is listed for CC1OC2(CS1)CN1CCC2CC1 (stereo not shown) [hydrochloride] ?
78.1

###

# Assay Remarks: Toxicity Test (LD50, observation of mice for two weeks)
# Parameters: species or system ICR (CD-1) mice
# Assay Context: mouse, in vivo, po, female mice
# Experimental: Groups of ICR (CD-1) male and female mice (age: 5 weeks, weight of male mice: 22.0-33.8 g, weight of female mice: 18.8-27.3 g), each consisting of eight mice, were used for the test. 2-methylspiro(1,3-oxathiolane-5,3')quinuclidine hydrochloride of formula (II) was orally, intravenously, or subcutaneously administered at different (high and low) doses. LD50 (50% lethal dose) was determined by the observation of mice for two weeks thereafter.
Where a name gives a salt, the structure may show the parent alone.
Readout Label: LD50 at 336 h (mg/kg)
The figure you give is taken to be in mg/kg; do not add the unit.

Which LD50 at 336 h is listed for CC1OC2(CS1)CN1CCC2CC1 (stereo not shown) [hydrochloride] ?
167

###

# Assay Remarks: Toxicity Test (LD50, observation of mice for two weeks)
# Parameters: species or system ICR (CD-1) mice
# Assay Context: mouse, in vivo, po, male mice
Where a name gives a salt, the structure may show the parent alone.
Readout Label: LD50 at 336 h (mg/kg)
The figure you give is taken to be in mg/kg; do not add the unit.

Which LD50 at 336 h is listed for CC1OC2(CS1)CN1CCC2CC1 (stereo not shown) [hydrochloride] ?
139
